Values compiled from patent US20210380703A1.

Provide the recorded optical density for the entries that follow.
SYSTEM: mouse ACVR2A (mouse, UniProt P27038 20-135, limits assumed); further: test concentration or dose not given here
Sequence (P27038 20-135 limits assumed): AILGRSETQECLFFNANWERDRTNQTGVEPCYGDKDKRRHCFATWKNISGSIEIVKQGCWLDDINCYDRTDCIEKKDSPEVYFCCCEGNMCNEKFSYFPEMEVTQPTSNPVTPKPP
TEST_NAME: ELISA
Please provide the amount together with its unit, number first.

*Q* Suppose we examine the binder 375_F01 (antibody, V domains shown, VH and VL only) VH: EVQLLESGGGLVQPGGSLRLSCAASGFTFSSYSMNWVRQAPGKGLEWVSSINYNSGYTGYADSVKGRFTISRDNSKNTLYLQMNSLRAEDTAVYYCARSATWHDTHLDYWGQGTLVTVSS VL: DIQMTQSPSSLSASVGDRVTITCRASQSIVSYLNWYQQKPGKAPKLVIYAATSRASGVPSRFSGSGSGTDFTLTISSLQPEDFATYYCQQSYDNPLTFGGGTKVEIK ; what optical density value has been reported?
*A* 3.46 OD

*Q* What optical density value was documented for this binder, 365_E03 (antibody, V domains shown, VH and VL only) VH: EVQLLESGGGLVQPGGSLRLSCAASGFTFDSYSMNWVRQAPGKGLEWVSNINYNGGYTGYADSVKGRFTISRDNSKNTLYLQMNSLRAEDTAVYYCARSATWHDTHLDYWGQGTLVTVSS VL: DIQMTQSPSSLSASVGDRVTITCRASQSILTYVNWYQQKPGKAPKLLIYAATSLHSGVPSRFSGSGSGTDFTLTISSLQPEDFATYYCQQSDERPLTFGGGTKVEIK ?
*A* 2.69 OD

*Q* Sample 376_E09 (antibody, V domains shown, VH and VL only) VH: EVQLLESGGGLVQPGGSLRLSCAASGFTFDSYSMNWVRQAPGKGLEWVSGINYNSGYKSYADSVKGRFTISRDNSKNTLYLQMNSLRAEDTAVYYCARSATWHDTHLDYWGQGTLVTVSS VL: DIQMTQSPSSLSASVGDRVTITCRASQSILTYLNWYQQKPGKAPKLLIYAATSRHSGVPSRFSGSGSGTDFTLTISSLQPEDFATYYCQQSYDTPLTFGGGTKVEIK — what was its optical density?
*A* 3.76 OD
